molecular target: T1, UL128/UL130 co-expressed from MVA in BHK-21 cells (human cytomegalovirus, UniProt P16837 28-171; P16772 1-214); test: intracellular FC, MVA-infected BHK-21
T1 construct: whole, on cells
T1 sequence (P16837 28-171 limits assumed, chain 1 of 2): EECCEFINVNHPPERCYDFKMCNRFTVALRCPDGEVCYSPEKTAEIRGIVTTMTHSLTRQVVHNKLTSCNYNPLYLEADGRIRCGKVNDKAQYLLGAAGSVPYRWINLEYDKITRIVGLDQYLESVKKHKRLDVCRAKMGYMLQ
T1 sequence (P16772 26-214 limits assumed, chain 2 of 2): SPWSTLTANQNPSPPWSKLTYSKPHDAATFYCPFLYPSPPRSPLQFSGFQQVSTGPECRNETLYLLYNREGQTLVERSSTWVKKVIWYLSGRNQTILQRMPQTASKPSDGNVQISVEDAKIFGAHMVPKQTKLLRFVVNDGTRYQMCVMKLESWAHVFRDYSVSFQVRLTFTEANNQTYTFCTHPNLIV

- binder: "12E2 (antibody, V domains shown, also called NAb 12E2) VH: EVKLVESGGGLVQPGGSLKLSCATSGFTFSDYYMFWVRQTPEKKLEWVAYISNGGGSTYYPDTVKGRFTISRDNDKNTLYLQMSRLKSDDTALYYCVRPKRDFQYLYAMDYWGQGTSVTVSS VL: DIVLTQSPASLAVSLGQRATISCRASKSVSTSGYSYMHWYQQKPGQSPKLLIYLASNLESGVPARFSGSGSGTDFTLNIHPVEDEDAATYYCQHSRELPWTFGGGTKLEIK"
  binding result: "no binding"
- binder: "62-100 (antibody, V domains shown, also called NAb 62-100) VH: QVQLQQPGAELVRPGASVKLSCKASGYTFTSYWMNWVKQRPGQGLEWIGMIDPSDSETHYNQMFKDKATLTVDKSSSTAYMQLSSLTSEDSAVYYCSNGYSSFAYWGQGTLVTVSV VL: DIVLTQSPATLSVTPGDSVSLSCRASQSISNNLHWYQQKSHESPRLLIKYASQSISGIPSRFSGSGSGTDFTLSINSVETEDFGKYVCQQSNSWPLTFGSGTKLEIK"
  binding result: "no binding"
- binder: "2-80 (antibody, V domains shown, also called NAb 2-80) VH: QIQLVQSGPELKKPGETVKISCKASGYTFTNFGMNWVKQAPGKGLKWMGWINTYTGEPTYADDFKGRFAFSLETSASTASLQINNLKNEDTATYFCARRGDGLYSMDYWGQGTSVTVSS VL: DIVLTQSPASLAVSLGQRATISCRASESIDSYGNSFMYWYQQKPGQPPKLLIYRASNLESGIPARFSGSGSRTDFTLTINPVEADDVATYYCQQSNEDPLTFGAGTKLELK"
  binding result: "no binding"
